Cited source for all entries: ChEMBL document CHEMBL5390243

Entries and their pIC50 values follow.
- assay system: Casein kinase I isoform delta (Homo sapiens)
- Sequence (P48730 whole entry, the tested form may be a part, canonical isoform): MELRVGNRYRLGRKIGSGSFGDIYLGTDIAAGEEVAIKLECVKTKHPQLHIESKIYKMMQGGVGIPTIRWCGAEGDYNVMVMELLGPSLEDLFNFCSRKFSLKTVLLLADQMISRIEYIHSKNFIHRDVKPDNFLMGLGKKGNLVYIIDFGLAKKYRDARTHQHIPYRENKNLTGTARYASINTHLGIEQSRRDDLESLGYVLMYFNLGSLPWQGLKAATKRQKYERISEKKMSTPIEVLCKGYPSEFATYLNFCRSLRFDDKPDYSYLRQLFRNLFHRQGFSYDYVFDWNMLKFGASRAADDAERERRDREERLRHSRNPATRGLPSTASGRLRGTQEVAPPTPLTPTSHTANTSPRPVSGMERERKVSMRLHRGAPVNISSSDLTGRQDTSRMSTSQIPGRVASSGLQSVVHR
- measurement notes: Inhibition of N-terminal GST-tagged human recombinant CK1delta (1 to 294 residues) expressed in Escherichia coli incubated for 60 mins in presence of ATP by Kinase-glo luminescent assay
pIC50: −log10 of the molar value.

# mol, data value
measured = [
    ("O=c1oc2cc(O)c(O)cc2c2c3c4cc(O)c(O)cc4oc(=O)c3n(CCc3ccc(O)c(O)c3)c12", 5.41),
    ("O=C1C(c2ccc(O)c(O)c2)=C2C(=C(c3ccc(O)c(O)c3)C(=O)N2CCc2ccc(O)c(O)c2)c2cc(O)c(O)cc21", "> 6.70"),
]

**Q:** Query: pIC50; subject: COc1cc2c(cc1O)CCn1c-2c(-c2ccc(O)c(O)c2)c2c3cc(O)c(OC)cc3oc(=O)c21
**A:** < 5.00

* * *

Entries and their IC50 values follow.
- assay system: Acetylcholinesterase (Homo sapiens)
- Sequence (P22303 whole entry): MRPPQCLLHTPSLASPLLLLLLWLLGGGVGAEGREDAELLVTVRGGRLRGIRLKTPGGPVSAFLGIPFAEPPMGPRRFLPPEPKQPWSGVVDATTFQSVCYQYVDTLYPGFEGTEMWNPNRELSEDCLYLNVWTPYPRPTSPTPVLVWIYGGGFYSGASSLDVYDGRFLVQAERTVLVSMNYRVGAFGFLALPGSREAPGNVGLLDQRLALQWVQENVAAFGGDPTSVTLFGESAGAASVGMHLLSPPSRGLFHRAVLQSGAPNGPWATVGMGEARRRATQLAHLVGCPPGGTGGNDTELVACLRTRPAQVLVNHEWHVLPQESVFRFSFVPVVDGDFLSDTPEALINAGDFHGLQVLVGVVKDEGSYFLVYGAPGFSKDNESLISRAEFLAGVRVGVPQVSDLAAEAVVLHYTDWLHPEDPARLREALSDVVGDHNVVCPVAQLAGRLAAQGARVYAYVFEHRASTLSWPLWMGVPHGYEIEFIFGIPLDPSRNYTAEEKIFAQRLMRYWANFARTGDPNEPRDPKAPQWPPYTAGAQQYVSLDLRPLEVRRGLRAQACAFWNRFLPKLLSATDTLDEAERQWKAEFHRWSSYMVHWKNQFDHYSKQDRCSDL
- measurement notes: Inhibition of human AchE using acetylthiocholine iodide as substrate incubated for 20 mins by Ellman's assay
- applied conditions: read-out: EC50 (the source's name)
Report the value in µM with no unit label.

Sample records with IC50:
# mol, data value
measured = [
    ("O=C(/C=C/c1ccc(O)cc1)n1ccc2cc(O)c(O)cc21", 55.1),
    ("O=C(/C=C/c1ccc(O)c(O)c1)n1ccc2cc(O)c(O)cc21", 44.8),
    ("O=C(/C=C/c1ccc(O)cc1)n1ccc2cc(O)c(O[C@@H]3O[C@H](CO)[C@@H](O)[C@H](O)[C@H]3O)cc21", 58.8),
]

Note: attention shifts to another entry.
**Q:** Query: IC50; subject: COc1cc(/C=C/C(=O)n2ccc3cc(O)c(O)cc32)ccc1O
**A:** 46.8

* * *

- Test system: Leishmania amazonensis
- measurement notes: Antileishmanial activity against Leishmania amazonensis amastigotes assessed as inhibition of parasitic growth
- Type: functional, organism-based
readout: IC50 (nM)
Report the value in nM with no unit label.

**Q:** Query: IC50; subject: Oc1ccc([C@H]2NCCc3cc(O)c(O)cc32)cc1O
**A:** 160

* * *

- System: CCF-STTG1
- measurement notes: Cytotoxicity against human CCF-STTGI assessed as reduction in cell viability measured after 48 hrs by MTT assay
- Type: functional, cell-based
- applied conditions: CCF-STTG1, 48 h
readout: IC50 (µM)
Report the value in µM with no unit label.

**Q:** Query: IC50; subject: Oc1cc2c3c(c1O)c1cc4c(cc1c[n+]3CC2)OCO4
**A:** 9.4

* * *

- measurement notes: Cytotoxicity against human SHG-44 cells assessed as reduction in cell viability measured after 48 hrs by MTT assay
- Type: functional, cell-based
- applied conditions: SHG-44, 48 h
readout: IC50 (µM)
Report the value in µM with no unit label.

**Q:** Query: IC50; subject: Oc1cc2c3c(c1O)c1cc4c(cc1c[n+]3CC2)OCO4
**A:** 9.4

* * *

- assay system: UniProtKB P22303
- measurement notes: Inhibition of human recombinant acetylcholinesterase using acetylthiocholine as substrate by spectrophotometric analysis
readout: EC50 (µM)
Report the value in µM with no unit label.

**Q:** Find the measured EC50: item O=C1NCCc2c1ccc(O)c2O , target or system UniProtKB P22303.
**A:** 65.7
